TGI values by entry
# Tested on: SK-MEL-2 melanoma
# test protocol: NCI tumour cell line growth inhibition, 48 h
Provide only the numeric value, understood in µM.

- C=CCN1C(=O)/C(=C/c2ccccc2)N=C1SC1OC(COC(C)=O)C(OC(C)=O)C(OC(C)=O)C1OC(C)=O (stereo not given): 48.8
- COc1cc(CCC(=O)O)c2cc3ccccc3cc2c1O: 36.6

Exercise: Find the recorded TGI belonging to "c1ccc(-c2sc(-c3ccccc3)c3c2C2CCC3C2)cc1" and report it.
Solution: 39.5

Exercise: Thanks! And CCCCCCCCCCCCNC(=O)[C@H]1CSC(c2cc(Br)cs2)N1 (stereo not given in full) ?
Solution: 1.77
